- ASSAY EXPLANATION: AUC in rat at 1 mg/kg, po
- Format: ADME, organism-based
- ASSAY SETUP: in vivo

{"TEST SMILES": "CCS(=O)(=O)c1ccc(CC(=O)Nc2ccc(C(C)(C)C(=O)Nc3ccc(F)cc3)c(F)c2)cc1", "AUC": "0.786 µg·h/mL"}
{"TEST SMILES": "CCS(=O)(=O)c1ccc(CC(=O)Nc2ccc(C(C)(C)C(=O)Nc3ccc(F)cc3F)c(F)c2)cc1", "AUC": "2.11 µg·h/mL"}
{"TEST SMILES": "CCS(=O)(=O)c1ccc(CC(=O)Nc2ccc(C(C)(C)C(=O)Nc3cc(C#N)ccn3)c(F)c2)cc1", "AUC": "0.218 µg·h/mL"}

----------
- ASSAY EXPLANATION: Volume of distribution at steady state in rat at 0.5 mg/kg, iv
- Format: ADME, organism-based
- ASSAY SETUP: in vivo, read-out: Vdss

{"TEST SMILES": "CCS(=O)(=O)c1ccc(CC(=O)Nc2ccc(C(C)(C)C(=O)Nc3cc(C#N)ccn3)c(F)c2)cc1", "Vd, L/kg": 3.3}
{"TEST SMILES": "CCS(=O)(=O)c1ccc(CC(=O)Nc2ccc(C(C)(C)C(=O)Nc3ccc(F)cc3F)c(F)c2)cc1", "Vd, L/kg": 1.1}
{"TEST SMILES": "CCS(=O)(=O)c1ccc(CC(=O)Nc2ccc(C(C)(C)C(=O)Nc3ccc(F)cc3)c(F)c2)cc1", "Vd, L/kg": 1.7}

----------
- ASSAY EXPLANATION: Solubility of the compound in KH2PO4/Na2HPO4 buffer at pH 6.8 by shake-flask method
- Assay type: physicochemical

{"TEST SMILES": "CCS(=O)(=O)c1ccc(CC(=O)Nc2ccc(C(C)(C)C(=O)Nc3ncccc3F)cc2)cc1", "VALUE RELATION SIGN": ">", "solubility thermodynamic / µM": 50}
{"TEST SMILES": "CCS(=O)(=O)c1ccc(CC(=O)Nc2ccc(C(C)(C)C(=O)Nc3cccc(C(F)(F)F)n3)cc2)cc1", "VALUE RELATION SIGN": "=", "solubility thermodynamic / µM": 0.6}
{"TEST SMILES": "CCS(=O)(=O)c1ccc(CC(=O)Nc2ccc(C(C)(C)C(=O)Nc3cc(Cl)ccn3)cc2)cc1", "VALUE RELATION SIGN": "=", "solubility thermodynamic / µM": 4.7}
{"TEST SMILES": "CCS(=O)(=O)c1ccc(CC(=O)Nc2ccc(C(C)(C)C(=O)Nc3ccncc3)cc2)cc1", "VALUE RELATION SIGN": ">", "solubility thermodynamic / µM": 50}
{"TEST SMILES": "CCS(=O)(=O)c1ccc(CC(=O)Nc2ccc(C(C)(C)C(=O)Nc3cc(F)ccn3)cc2)cc1", "VALUE RELATION SIGN": ">", "solubility thermodynamic / µM": 50}
{"TEST SMILES": "CCS(=O)(=O)c1ccc(CC(=O)Nc2ccc(C(C)(C)C(=O)Nc3ccccn3)cc2)cc1", "VALUE RELATION SIGN": ">", "solubility thermodynamic / µM": 50}
{"TEST SMILES": "CCS(=O)(=O)c1ccc(CC(=O)Nc2ccc(C(C)(C)C(=O)Nc3ccc(F)cc3)c(F)c2)cc1", "VALUE RELATION SIGN": "=", "solubility thermodynamic / µM": 16}
{"TEST SMILES": "CCS(=O)(=O)c1ccc(CC(=O)Nc2ccc(C(C)(C)C(=O)Nc3cc(C(F)(F)F)ccn3)cc2)cc1", "VALUE RELATION SIGN": "=", "solubility thermodynamic / µM": 0.5}
{"TEST SMILES": "CCS(=O)(=O)c1ccc(CC(=O)Nc2ccc(C(C)(C)C(=O)Nc3cc(C#N)ccn3)cc2)cc1", "VALUE RELATION SIGN": "=", "solubility thermodynamic / µM": 25}
{"TEST SMILES": "CCS(=O)(=O)c1ccc(CC(=O)Nc2ccc(C(C)(C)C(=O)Nc3ccccc3)cc2)cc1", "VALUE RELATION SIGN": "=", "solubility thermodynamic / µM": 26.6}
{"TEST SMILES": "CCS(=O)(=O)c1ccc(CC(=O)Nc2ccc(C(C)(C)C(=O)Nc3ccc(F)cc3)cc2)cc1", "VALUE RELATION SIGN": "=", "solubility thermodynamic / µM": 31}
{"TEST SMILES": "CCS(=O)(=O)c1ccc(CC(=O)Nc2ccc(C(C)(C)C(=O)Nc3cc(C#N)ccn3)c(F)c2)cc1", "VALUE RELATION SIGN": "=", "solubility thermodynamic / µM": 9}
{"TEST SMILES": "CCS(=O)(=O)c1ccc(CC(=O)Nc2ccc(C(C)(C)C(=O)Nc3ccc(F)cc3F)c(F)c2)cc1", "VALUE RELATION SIGN": "=", "solubility thermodynamic / µM": 25}
